- measurementTarget: Transient receptor potential cation channel subfamily V member 1 (Homo sapiens)
- Sequence (Q8NER1 whole entry): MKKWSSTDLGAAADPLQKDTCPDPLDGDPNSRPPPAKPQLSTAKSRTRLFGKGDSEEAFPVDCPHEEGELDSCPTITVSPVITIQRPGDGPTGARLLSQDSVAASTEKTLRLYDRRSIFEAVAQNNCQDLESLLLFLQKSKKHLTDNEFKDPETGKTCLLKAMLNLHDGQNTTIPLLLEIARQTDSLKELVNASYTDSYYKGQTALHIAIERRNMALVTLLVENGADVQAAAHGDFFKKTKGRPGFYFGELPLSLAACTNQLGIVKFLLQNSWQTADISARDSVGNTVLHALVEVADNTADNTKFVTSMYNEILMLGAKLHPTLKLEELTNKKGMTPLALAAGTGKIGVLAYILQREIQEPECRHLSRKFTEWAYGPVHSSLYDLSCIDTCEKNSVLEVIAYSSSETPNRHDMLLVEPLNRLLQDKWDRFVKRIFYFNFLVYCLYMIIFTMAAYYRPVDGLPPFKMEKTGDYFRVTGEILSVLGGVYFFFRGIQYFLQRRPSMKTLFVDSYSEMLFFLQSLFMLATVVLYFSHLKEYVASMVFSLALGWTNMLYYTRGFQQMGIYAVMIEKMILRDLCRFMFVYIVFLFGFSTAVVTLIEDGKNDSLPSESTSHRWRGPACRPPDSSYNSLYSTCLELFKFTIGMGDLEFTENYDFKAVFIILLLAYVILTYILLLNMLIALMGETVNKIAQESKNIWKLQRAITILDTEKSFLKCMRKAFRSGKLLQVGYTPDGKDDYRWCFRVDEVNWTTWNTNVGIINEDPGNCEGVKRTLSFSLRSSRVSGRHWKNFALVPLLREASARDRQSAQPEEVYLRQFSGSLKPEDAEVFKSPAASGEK
- experimentNotes: Antagonist activity at human TRPV1 expressed in CHOluc9aeq cells assessed as inhibition of capsaicin-stimulated response by aequorin and CRE-lucifearase reporter gene assay
observedProperty: IC50 (nM)

Look over these answered cases.
compound=O=C(Nc1ccc(Cl)c(C(F)(F)F)c1)Nc1cccc2[nH]ccc12 measurementtarget="Transient receptor potential cation channel subfamily V member 1 (Homo sapiens)" testvalue=33
compound=O=C(Nc1ccc(Cl)c(C(F)(F)F)c1)Nc1cccc2nn[nH]c12 measurementtarget="Transient receptor potential cation channel subfamily V member 1 (Homo sapiens)" testvalue=180
compound=O=C(Nc1cccc(CCO)c1)Nc1ccc(Cl)c(C(F)(F)F)c1 measurementtarget="Transient receptor potential cation channel subfamily V member 1 (Homo sapiens)" testvalue=230
compound=O=C(Nc1ccc(Cl)c(C(F)(F)F)c1)Nc1ccc2ccc(O)cc2c1 measurementtarget="Transient receptor potential cation channel subfamily V member 1 (Homo sapiens)" testvalue=130
compound=O=C(Nc1ccc(Cl)c(C(F)(F)F)c1)Nc1ccccc1CO measurementtarget="Transient receptor potential cation channel subfamily V member 1 (Homo sapiens)" testvalue=330

I. O=C(Nc1ccc(Cl)c(C(F)(F)F)c1)Nc1cccc2ccc(NCc3ccccc3)cc12
II. NS(=O)(=O)Cc1ccccc1NC(=O)Nc1ccc(Cl)c(C(F)(F)F)c1
-- ask For this pair, I and II , which shows a numerically higher IC50? Pick one and reply with its label.
-- reply II

A. Cc1cccc(NC(=O)Nc2ccc(Cl)c(C(F)(F)F)c2)c1CCO
B. Nc1ccc2cccc(NC(=O)Nc3ccc(Cl)c(C(F)(F)F)c3)c2c1
-- ask Input pair: A , B . Output: entry with lower IC50. Pick one and reply with its label.
-- reply A

* * *

- experimentNotes: AUC in rat at 1 mg/kg, po
- Format: ADME, organism-based
- Set-up: dose 1 mg/kg, route oral
- conditionSummary: plasma
observedProperty: AUC (ng·h/mL)

Look over these answered cases.
compound=CC(=O)Nc1ccc2cccc(NC(=O)Nc3ccc(Cl)c(C(F)(F)F)c3)c2c1 observedproperty=AUC u=ng·h/mL testvalue=1590
compound=O=C(Nc1ccc(Cl)c(C(F)(F)F)c1)Nc1cccc2[nH]ccc12 observedproperty=AUC u=ng·h/mL testvalue=530
compound=Nc1ccc2cccc(NC(=O)Nc3ccc(Cl)c(C(F)(F)F)c3)c2c1 observedproperty=AUC u=ng·h/mL testvalue=217

a. CNc1ccc2cccc(NC(=O)Nc3ccc(Cl)c(C(F)(F)F)c3)c2c1
b. O=C(Nc1cccc(CCO)c1)Nc1ccc(Cl)c(C(F)(F)F)c1
-- ask Input pair: a , b . Output: entry with lower AUC. Pick one and reply with its label.
-- reply b

1. O=C(Nc1ccc(Cl)c(C(F)(F)F)c1)Nc1cccc2c1CC(O)CC2 (racemic)
2. O=C(Nc1ccc(Cl)c(C(F)(F)F)c1)Nc1cccc2ccc(NCc3ccccc3)cc12
-- ask For this pair, 1 and 2 , which shows a numerically higher AUC? Pick one and reply with its label.
-- reply 1

1. O=C(Nc1ccc(Cl)c(C(F)(F)F)c1)Nc1ccccc1CCO
2. O=C(Nc1ccc(Cl)c(C(F)(F)F)c1)Nc1cccc2cc[nH]c12
3. CS(=O)(=O)Nc1ccc2cccc(NC(=O)Nc3ccc(Cl)c(C(F)(F)F)c3)c2c1
-- ask Please list the entries, largest AUC first. Put the labels in the requested order and list them out.
-- reply 3, 1, 2
(3: 709 ng·h/mL, 1: 374 ng·h/mL, 2: 176 ng·h/mL)

* * *

- measurementTarget: Transient receptor potential cation channel subfamily V member 1 (Homo sapiens)
- experimentNotes: Antagonist activity at human TRPV1 expressed in CHOluc9aeq cells assessed as inhibition of capsaicin-stimulated response by aequorin and CRE-lucifearase reporter gene assay
observedProperty: IC50 (nM)

Look over these answered cases.
molecule=CC(=O)Nc1ccc2cccc(NC(=O)Nc3ccc(Cl)c(C(F)(F)F)c3)c2c1 u=nM testvalue=530
molecule=NS(=O)(=O)c1ccc2cccc(NC(=O)Nc3ccc(Cl)c(C(F)(F)F)c3)c2c1 u=nM testvalue=710
molecule=O=C(Nc1ccc(Cl)c(C(F)(F)F)c1)Nc1cccc2cc[nH]c12 u=nM testvalue=67

1. Cc1nc2cccc(NC(=O)Nc3ccc(Cl)c(C(F)(F)F)c3)c2[nH]1
2. O=C(Nc1ccc(Cl)c(C(F)(F)F)c1)Nc1cccc2c1CC(CO)CC2 (racemic)
-- ask Input pair: 1 , 2 . Output: entry with lower IC50. Pick one and reply with its label.
-- reply 1

* * *

- measurementTarget: Transient receptor potential cation channel subfamily V member 1 (Homo sapiens)
- experimentNotes: Antagonist activity at human TRPV1 expressed in CHOluc9aeq cells assessed as inhibition of capsaicin-stimulated response by aequorin and CRE-lucifearase reporter gene assay
pIC50: −log10 of the molar value.
observedProperty: pIC50

Look over these answered cases.
compound=O=C(Nc1ccc(Cl)c(C(F)(F)F)c1)Nc1cccc2ccc(C(=O)O)cc12 testvalue=7.08
compound=O=C(Nc1ccc(Cl)c(C(F)(F)F)c1)Nc1ccccc1CCCO testvalue=6.66
compound=O=C(Nc1ccc(Cl)c(C(F)(F)F)c1)Nc1cccc2c(O)cccc12 testvalue=7.35

I. CC1CCc2cccc(NC(=O)Nc3ccc(Cl)c(C(F)(F)F)c3)c2C1 (racemic)
II. O=C(Nc1ccc(Cl)c(C(F)(F)F)c1)Nc1cccc2cc(O)ccc12
-- ask For this pair, I and II , which shows a numerically higher pIC50? Pick one and reply with its label.
-- reply II
(II: 7.74, I: 7.03)

P. O=C(Nc1ccc(Cl)c(C(F)(F)F)c1)Nc1ccccc1CCO
Q. CNc1ccc2cccc(NC(=O)Nc3ccc(Cl)c(C(F)(F)F)c3)c2c1
-- ask Input pair: P , Q . Output: entry with lower pIC50. Pick one and reply with its label.
-- reply P
(P: 7.25, Q: 7.52)

a. O=C(Nc1ccc(Cl)c(C(F)(F)F)c1)Nc1cccc2nc(C(F)(F)F)[nH]c12
b. O=C(Nc1ccc(Cl)c(C(F)(F)F)c1)Nc1cccc2ccc(O)c(F)c12
-- ask Input pair: a , b . Output: entry with lower pIC50. Pick one and reply with its label.
-- reply a
(a: 7.49, b: 8.04)

These measurements were taken from ChEMBL document CHEMBL2021792.
